Provide the reported pIC50 of each item.
- tested.system: Acetylcholinesterase (Bos taurus, UniProt P23795)
- Sequence (P23795 whole entry): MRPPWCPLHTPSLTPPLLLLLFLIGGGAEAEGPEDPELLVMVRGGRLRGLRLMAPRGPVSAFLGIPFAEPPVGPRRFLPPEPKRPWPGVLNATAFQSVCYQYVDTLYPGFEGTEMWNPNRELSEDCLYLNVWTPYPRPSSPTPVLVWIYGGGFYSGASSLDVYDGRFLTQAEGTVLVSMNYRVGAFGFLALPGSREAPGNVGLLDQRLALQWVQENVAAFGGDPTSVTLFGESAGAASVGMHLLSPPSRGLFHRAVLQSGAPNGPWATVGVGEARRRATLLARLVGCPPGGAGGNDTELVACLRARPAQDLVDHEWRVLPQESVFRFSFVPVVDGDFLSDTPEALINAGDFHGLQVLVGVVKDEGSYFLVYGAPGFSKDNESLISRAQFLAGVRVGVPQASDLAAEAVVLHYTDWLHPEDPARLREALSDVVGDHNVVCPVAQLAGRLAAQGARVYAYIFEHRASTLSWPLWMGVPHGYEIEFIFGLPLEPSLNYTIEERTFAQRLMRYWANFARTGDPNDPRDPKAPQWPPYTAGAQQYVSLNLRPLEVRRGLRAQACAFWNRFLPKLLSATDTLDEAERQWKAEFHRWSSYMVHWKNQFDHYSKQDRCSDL
Answers are plain numbers, as −log10 of the molar value.

C/C=C1\[C@H]2C=C(CO)C[C@]1(N)c1ccc(=O)[nH]c1C2
5.68

I would be grateful if you could provide pIC50 for each of the following entries.
1. C/C=C1\[C@H]2C=C(C(=O)OC)C[C@]1(N)c1ccc(=O)[nH]c1C2
2. C/C=C1\[C@H]2C=C(C)C[C@]1(N)c1ccc(=O)[nH]c1C2

OUT:
5.38
7.00
